# credit: ChEMBL document CHEMBL1140288

EC50 values, listed per item
- System: MT4
- method.notes: Concentration of compound required to inhibit HIV-1(IIIB) induced cytopathicity in MT-4 cell culture by 50%
- Type: functional, cell-based
- condition: Homo sapiens

smiles.notation: Cc1cn([C@@H]2O[C@H](CO[Si](C)(C)C(C)(C)C)[C@]3(C(N)=CS(=O)(=O)N3C)[C@H]2O[Si](C)(C)C(C)(C)C)c(=O)n(C)c1=O
target.or.test.system: MT4
EC50 (nM): 660

smiles.notation: Cc1cn([C@@H]2O[C@H](CO[Si](C)(C)C(C)(C)C)[C@]3(C(N)=CS(=O)(=O)N3C)[C@H]2O[Si](C)(C)C(C)(C)C)c(=O)[nH]c1=O
target.or.test.system: MT4
EC50 (nM): 1600

smiles.notation: Cc1cn([C@@H]2O[C@H](CO[Si](C)(C)C(C)(C)C)[C@@]3(NS(=O)(=O)C=C3N)[C@H]2O[Si](C)(C)C(C)(C)C)c(=O)[nH]c1=O
target.or.test.system: MT4
EC50 (nM): 530

smiles.notation: Cc1cn([C@@H]2O[C@H](CO[Si](C)(C)C(C)(C)C)[C@@]3(NS(=O)(=O)C=C3N)[C@H]2O[Si](C)(C)C(C)(C)C)c(=O)n(C(=O)OC(C)(C)C)c1=O
target.or.test.system: MT4
EC50 (nM): 130

smiles.notation: Cc1cn([C@@H]2O[C@H](CO[Si](C)(C)C(C)(C)C)[C@@]3(OS(=O)(=O)C=C3N)[C@H]2O[Si](C)(C)C(C)(C)C)c(=O)[nH]c1=O
target.or.test.system: MT4
EC50 (nM): 60

smiles.notation: Cc1cn([C@@H]2O[C@H](CO[Si](C)(C)C(C)(C)C)[C@]3(C(N)=CS(=O)(=O)N3C)[C@H]2O[Si](C)(C)C(C)(C)C)c(=O)n(C(=O)OC(C)(C)C)c1=O
target.or.test.system: MT4
EC50 (nM): 1800
